# tgt: T1, soluble HLA-A2 MAGE-A8 (…) tetramer (human)
# T1 construct: Bought tetramer reagent; also called MAGE-A8/HLA tetramer reagent; HLA-A02:01 MAGE-A8 tetramer
# assay name: flow cytometry, HLA-A2 MAGE-A8 (…) tetramer staining of CHO cells transfected with the TCR
recorded metric: % tetramer in Ag+ gate (MAGE-A8) (%)
Entry rule: numbers only, all in %.

// below: answered binders
- PN45494 (TCR, V domains shown, full-length chains on transfected CHO cells; also called TCR No. 50) V domain 1: GNSVTQIEGPVTLSEEAFLTINCTYTATGYPSLFWYVQYPGEGLQLLLKATKADDKGSNKGFEATYRKETTSFHLEKGSVQVSDSAVYFCALSDTRDDKTIFGKGTRLHILP V domain 2: DVKVTQSSRYLVKRTGEKVFLECVQDMDHENMFWYRQDPGLGLRLIYFSYDVKMKEKGDIPEGYSVSREKKERFSLILESASTNQTSMYLCASSLQGRYYGYTFGSGTRLTVV: 1.88
- PN45418 (TCR, V domains shown, stained with anti-mouse TCR constant region H57-597; full-length chains on transfected CHO cells; also called TCR No. 46) V domain 1: EDQVTQSPEALRLQEGESSSLNCSYTVSGLRGLFWYRQDPGKGPEFLFTLYSAGEEKEKERLKATLTKKESFLHITAPKPEDSATYLCAVQPSYSGAGSYQLTFGKGTKLSVIP V domain 2: EAQVTQNPRYLITVTGKKLTVTCSQNMNHEYMSWYRQDPGLGLRQIYYSMNVEVTDKGDVPEGYKVSRKEKRNFPLILESPSPNQTSLYFCASSPGTGGFSPLHFGNGTRLTVT: 1.24

Now let's try a different one.
IN: Name the reported % tetramer in Ag+ gate (MAGE-A8) value associated with the binder PN45546 (TCR, V domains shown, full-length chains on transfected CHO cells; also called TCR No. 53) V domain 1: AQTVTQSQPEMSVQEAETVTLSCTYDTSESDYYLFWYKQPPSRQMILVIRQEAYKQQNATENRFSVNFQKAAKSFSLKISDSQLGDAAMYFCAYRSGAGGTSYGKLTFGQGTILTVHP V domain 2: DAGVTQSPTHLIKTRGQQVTLRCSPISGHKSVSWYQQVLGQGPQFIFQYYEKEERGRGNFPDRFSARQFPNYSSELNVNALLLGDSALYLCASSIRDTYGYTFGSGTRLTVV
OUT: 60.6

Numbers sourced from patent US20220324939A1.
